test system: SRY-box transcription factor 17 (SOX17) Protein Expression, Deisenroth Lab, SOX17 (gene 64321); assay: CCTE_Deisenroth_DEVTOX-GLR_legacy_Sox17: (Legacy) CCTE's DevTox GLR-Endo Assay Evaluation of SRY-box transcription factor 17 (SOX17) Protein Expression, Deisenroth Lab (AID 2284341); details: actives raise or lower the signal
Activity calls are given as the source filed them. How the source made its calls: active means hit-call score of the fitted dose curve at least 0.9, where 1 is the maximum; inactive means score below 0.9.
Answer with one of the outcomes active, inactive

{"Structure String": "CC(=O)Oc1ccccc1C(=O)O", "Label": "inactive"}
{"Structure String": "CCCc1cc(=O)[nH]c(=S)[nH]1", "Label": "inactive"}
{"Structure String": "COc1ccc2c(c1)c(CC(=O)O)c(C)n2C(=O)c1ccc(Cl)cc1", "Label": "active"}

Here is another compound to look at.
Problem: Hi team, can someone confirm the assay call for O=c1[nH]cc(F)c(=O)[nH]1 ?
Result: active
